Value source: patent US8703793B2

biological target: Recombinant human CETP (Homo sapiens, UniProt P11597); test: CETP Scintillation Proximity Assay; conditions: 3H-cholesteryl ester transfer from human HDL donor to biotin labelled LDL, over night at room temperature; read-out: IC50 values for CETP inhibitory activity
Sequence (P11597 18-493): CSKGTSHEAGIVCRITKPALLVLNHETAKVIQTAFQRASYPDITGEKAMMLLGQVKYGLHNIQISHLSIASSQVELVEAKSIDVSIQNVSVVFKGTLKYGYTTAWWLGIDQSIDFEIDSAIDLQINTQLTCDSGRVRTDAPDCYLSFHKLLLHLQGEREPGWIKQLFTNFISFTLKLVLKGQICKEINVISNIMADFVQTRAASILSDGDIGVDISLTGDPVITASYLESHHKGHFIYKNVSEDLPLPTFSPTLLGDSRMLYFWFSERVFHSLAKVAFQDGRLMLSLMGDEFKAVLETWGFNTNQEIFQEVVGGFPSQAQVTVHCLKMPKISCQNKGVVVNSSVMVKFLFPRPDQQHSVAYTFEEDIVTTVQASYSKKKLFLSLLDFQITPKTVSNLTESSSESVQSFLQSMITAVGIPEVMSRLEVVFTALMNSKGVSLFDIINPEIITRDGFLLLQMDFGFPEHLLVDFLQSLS
pIC50: −log10 of the molar value.
As shown below, each of these molecules has a reported pIC50 value.

INSERT INTO results (molecule, endpoint_result) VALUES
  ('CC1(C)Cc2nc3c(c(C4CCCC4)c2C(O)C1)C(c1ccc(C(F)(F)F)cc1)OC3(C)C (single isomer, unassigned) [Example 1 (4)]', '> 5.30'),
  ('CC1(C)Cc2nc3c(c(C4CCCC4)c2[C@@H](O)C1)C(c1ccc(C(F)(F)F)cc1)OC3(C)C (single isomer, unassigned) [Example 1 (6)]', '> 4.70'),
  ('CC1(C)Cc2nc3c(c(C4CCCC4)c2[C@@H](O)C1)[C@H](c1ccc(C(F)(F)F)cc1)OC31CCCCC1 (single isomer, unassigned) [1 (8)]', '> 6.00');

Recorded pIC50 for CC1OC(c2ccc(C(F)(F)F)cc2)c2c1nc1c(c2C2CCCC2)[C@@H](O)CC(C)(C)C1 (single isomer, unassigned) [Diastereomer 3 of Example 1 (2)] , please?
> 6.00

Recorded pIC50 for CC1(C)Cc2nc3c(c(C4CCCC4)c2[C@@H](O)C1)[C@@H](c1ccc(C(F)(F)F)cc1)OC31CCCCC1 (single isomer, unassigned) [1 (9)] , please?
> 4.70

Recorded pIC50 for CC1OC(c2ccc(C(F)(F)F)cc2)c2c1nc1c(c2C2CCCC2)[C@@H](O)CC(C)(C)C1 (single isomer, unassigned) [Example 1 (1)] , please?
> 5.70
